Assay: Plasma levels of Example 1 and mouse MCP-1 in the 48-hour TG peritonitis model
Format: in vivo
Settings: hCCR-2 KI, mouse, oral, 200 mg/kg, read-out: Concentration of free Example 1 in plasma (nM) (fold IC90 CCR-2 binding)
Method: For the 48-hour TG peritonitis study, Example 1 was dosed twice a day with the first dose one hour prior to TG injection. Total peritoneal cell counts were obtained on isolated cells by a cell counter. Cytospins were performed to determine differential leukocyte counts. The cells were stained for 3 minutes with Wright-Giemsa Stain (Sigma-Aldrich) and then rinsed with deionized water for 5 minutes. Differential counts were calculated based on a total of 200 cells counted per sample. […]
Measure name: concentration at 48 h (nM)
Output spec: scalar in nM, unitless text.

According to the records, this molecule CC(=O)N[C@@H]1C[C@H](NC(C)(C)C)CC[C@@H]1N1CC[C@H](Nc2ncnc3cc(C(C)(C)C)nn23)C1=O displays concentration at 48 h of 136
